A collection of binders and their measured interaction score
- system-name: T1, 4H3056-AA
- T1 chain: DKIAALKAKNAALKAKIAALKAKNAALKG
- assay-comment: two-hybrid library CCmax;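 further: natural log of median RNA to DNA barcode read ratio; higher means stronger binding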
- experimental-setup: mean of both orientations
// keep it numeric: no unit symbol after the value

- binder: "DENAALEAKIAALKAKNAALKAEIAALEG [4H1401-AA]"
  readout-value: -1.2
- binder: "DKIAALKAEIAALKAENAALEAKNAALKG [4H2648-AA]"
  readout-value: -1.84
- binder: "DKIAALEAKNAALKAKNAALKAEIAALEG [4H2553-AA]"
  readout-value: -1.68
- binder: "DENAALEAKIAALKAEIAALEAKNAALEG [4H1351-AA]"
  readout-value: -1.54
- binder: "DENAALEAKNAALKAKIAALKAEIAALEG [4H1513-AA]"
  readout-value: -1.71

Exercise: Find the measured interaction score of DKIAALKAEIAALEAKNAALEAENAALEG [4H2611-AA] and report it.
Key: -1.57

Exercise: Find the measured interaction score of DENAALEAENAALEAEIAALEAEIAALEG [4H1153-AA] and report it.
Key: 1.46
